Molecular target: T1, human recombinant IL-21 (expressed in E. coli as the mature peptide); residues 30-162 of SEQ ID NO: 1 with an … (human, UniProt Q9HBE4 30-162)
T1 construct: The SPR and cell assays say only IL-21 / hIL-21 / recombinant human IL-21; also called hIL-21; human IL-21
T1 sequence (Q9HBE4 other isoform, or with tags, fused parts or gaps): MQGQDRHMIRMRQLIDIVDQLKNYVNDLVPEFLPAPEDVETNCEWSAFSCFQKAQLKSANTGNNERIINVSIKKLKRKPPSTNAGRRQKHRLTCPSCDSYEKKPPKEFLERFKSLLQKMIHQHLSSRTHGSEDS
Assay: crystal structure, Areaimol (CCP4)
MEASURE_NAME: Avr Area (average areas excluded in pairwise interactions) (Å^2)
// note: answer is a bare numeric in Å^2

Solved entries:
## Task // lookup Avr Area (average areas excluded in pairwise interactions) for Fab59 (Fab35 with L, Q27N mutation; Fab fragment of mAb64) (Fab, V domains shown, also called aIL-21 Fab59) VH: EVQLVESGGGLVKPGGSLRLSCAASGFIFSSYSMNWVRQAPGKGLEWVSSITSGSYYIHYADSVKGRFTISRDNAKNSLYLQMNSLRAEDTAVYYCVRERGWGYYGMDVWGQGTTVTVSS VL: AIQLTQSPSSLSASVGDRVTITCRASNDIDSALAWYQQKPGKAPKILIHDASSLESGVPSRFSGSGSGTDFTLTISSLQPEDFATYYCQQFNSYPYTFGQGTKLEIKR
## Result 1170

## Task And then Fab57 (Fab35 with H: K65R; Fab fragment of mAb62) (Fab, V domains shown, also called aIL-21 Fab57) VH: EVQLVESGGGLVKPGGSLRLSCAASGFIFSSYSMNWVRQAPGKGLEWVSSITSGSYYIHYADSVRGRFTISRDNAKNSLYLQMNSLRAEDTAVYYCVRERGWGYYGMDVWGQGTTVTVSS VL: AIQLTQSPSSLSASVGDRVTITCRASQDIDSALAWYQQKPGKAPKILIHDASSLESGVPSRFSGSGSGTDFTLTISSLQPEDFATYYCQQFNSYPYTFGQGTKLEIKR , what is it?
## Result 1070

In the following, a different binder is considered.
## Task Name the recorded Avr Area (average areas excluded in pairwise interactions) for Fab60 (Fab35 with L, D30E mutation; Fab fragment of mAb65) (Fab, V domains shown, also called aIL-21 Fab60) VH: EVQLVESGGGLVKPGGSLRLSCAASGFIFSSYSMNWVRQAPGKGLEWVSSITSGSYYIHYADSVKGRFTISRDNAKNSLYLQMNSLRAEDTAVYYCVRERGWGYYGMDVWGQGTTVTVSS VL: AIQLTQSPSSLSASVGDRVTITCRASQDIESALAWYQQKPGKAPKILIHDASSLESGVPSRFSGSGSGTDFTLTISSLQPEDFATYYCQQFNSYPYTFGQGTKLEIKR .
## Result 1100
